Attribute: AUC* TylA (metabolite)
assay: Rat oral pharmacokinetic study (plasma AUC, C8hr); format: in vivo, Sprague-Dawley rats; settings: PO, Sprague-Dawley rats; primary metabolite TylA; AUC/dose
experimental.readout: AUC* TylA (metabolite) (ng-hr/ml per mg/kg)

compound | experimental.readout | comparison.sign | value.measured
CC[C@H]1OC(=O)C[C@@H](O)[C@H](C)[C@@H](O[C@@H]2O[C@H](C)[C@@H](O[C@H]3C[C@@](C)(O)[C@@H](OCc4ccc(F)cc4)[C@H](C)O3)[C@H](N(C)C)[C@H]2O)[C@@H](CC=O)C[C@@H](C)C(=O)/C=C/C(C)=C/[C@@H]1CO[C@@H]1O[C@H](C)[C@@H](O)[C@@H](OC)[C@H]1OC | AUC* TylA (metabolite) | < | 0.6
CCCCC(=O)OC1C(C)OC(OC2C(C)OC(OC3C(CC=O)CC(C)C(=O)C=CC(C)=CC(COC4OC(C)C(O)C(OC)C4OC)C(CC)OC(=O)CC(O)C3C)C(O)C2N(C)C)CC1(C)O (stereo not drawn) | AUC* TylA (metabolite) | = | 30
CCCCC(=O)OC1C(OC2C(CC=O)CC(C)C(=O)C=CC(C)=CC(COC3OC(C)C(O)C(OC)C3OC)C(CC)OC(=O)CC(O)C2C)OC(C)C(OC2CC(C)(O)C(O)C(C)O2)C1N(C)C (stereo not drawn) | AUC* TylA (metabolite) | = | 1.2
CC[C@H]1OC(=O)C[C@@H](O)[C@H](C)[C@@H](O[C@@H]2O[C@H](C)[C@@H](O[C@H]3C[C@@](C)(O)[C@@H](OCc4ccc(F)cc4)[C@H](C)O3)[C@H](N(C)C)[C@H]2OC(=O)C(C)C)[C@@H](CC=O)C[C@@H](C)C(=O)/C=C/C(C)=C/[C@@H]1CO[C@@H]1O[C@H](C)[C@@H](O)[C@@H](OC)[C@H]1OC | AUC* TylA (metabolite) | < | 0.6
CCC1OC(=O)CC(O)C(C)C(OC2OC(C)C(OC3CC(C)(O)C(OC(=O)C(C)(C)C)C(C)O3)C(N(C)C)C2O)C(CC=O)CC(C)C(=O)C=CC(C)=CC1COC1OC(C)C(O)C(OC)C1OC (stereo not drawn) | AUC* TylA (metabolite) | < | 0.6
CCC1OC(=O)CC(O)C(C)C(OC2OC(C)C(OC3CC(C)(O)C(OC(=O)N(CC)CC)C(C)O3)C(N(C)C)C2OC(=O)C(C)C)C(CC=O)CC(C)C(=O)C=CC(C)=CC1COC1OC(C)C(O)C(OC)C1OC (stereo not drawn) | AUC* TylA (metabolite) | = | 1.4
